# tested_system: ΔF508-CFTR (Homo sapiens, UniProt P13569, DEL508-508)
# Sequence (P13569 with tags, fused parts or gaps DEL508-508): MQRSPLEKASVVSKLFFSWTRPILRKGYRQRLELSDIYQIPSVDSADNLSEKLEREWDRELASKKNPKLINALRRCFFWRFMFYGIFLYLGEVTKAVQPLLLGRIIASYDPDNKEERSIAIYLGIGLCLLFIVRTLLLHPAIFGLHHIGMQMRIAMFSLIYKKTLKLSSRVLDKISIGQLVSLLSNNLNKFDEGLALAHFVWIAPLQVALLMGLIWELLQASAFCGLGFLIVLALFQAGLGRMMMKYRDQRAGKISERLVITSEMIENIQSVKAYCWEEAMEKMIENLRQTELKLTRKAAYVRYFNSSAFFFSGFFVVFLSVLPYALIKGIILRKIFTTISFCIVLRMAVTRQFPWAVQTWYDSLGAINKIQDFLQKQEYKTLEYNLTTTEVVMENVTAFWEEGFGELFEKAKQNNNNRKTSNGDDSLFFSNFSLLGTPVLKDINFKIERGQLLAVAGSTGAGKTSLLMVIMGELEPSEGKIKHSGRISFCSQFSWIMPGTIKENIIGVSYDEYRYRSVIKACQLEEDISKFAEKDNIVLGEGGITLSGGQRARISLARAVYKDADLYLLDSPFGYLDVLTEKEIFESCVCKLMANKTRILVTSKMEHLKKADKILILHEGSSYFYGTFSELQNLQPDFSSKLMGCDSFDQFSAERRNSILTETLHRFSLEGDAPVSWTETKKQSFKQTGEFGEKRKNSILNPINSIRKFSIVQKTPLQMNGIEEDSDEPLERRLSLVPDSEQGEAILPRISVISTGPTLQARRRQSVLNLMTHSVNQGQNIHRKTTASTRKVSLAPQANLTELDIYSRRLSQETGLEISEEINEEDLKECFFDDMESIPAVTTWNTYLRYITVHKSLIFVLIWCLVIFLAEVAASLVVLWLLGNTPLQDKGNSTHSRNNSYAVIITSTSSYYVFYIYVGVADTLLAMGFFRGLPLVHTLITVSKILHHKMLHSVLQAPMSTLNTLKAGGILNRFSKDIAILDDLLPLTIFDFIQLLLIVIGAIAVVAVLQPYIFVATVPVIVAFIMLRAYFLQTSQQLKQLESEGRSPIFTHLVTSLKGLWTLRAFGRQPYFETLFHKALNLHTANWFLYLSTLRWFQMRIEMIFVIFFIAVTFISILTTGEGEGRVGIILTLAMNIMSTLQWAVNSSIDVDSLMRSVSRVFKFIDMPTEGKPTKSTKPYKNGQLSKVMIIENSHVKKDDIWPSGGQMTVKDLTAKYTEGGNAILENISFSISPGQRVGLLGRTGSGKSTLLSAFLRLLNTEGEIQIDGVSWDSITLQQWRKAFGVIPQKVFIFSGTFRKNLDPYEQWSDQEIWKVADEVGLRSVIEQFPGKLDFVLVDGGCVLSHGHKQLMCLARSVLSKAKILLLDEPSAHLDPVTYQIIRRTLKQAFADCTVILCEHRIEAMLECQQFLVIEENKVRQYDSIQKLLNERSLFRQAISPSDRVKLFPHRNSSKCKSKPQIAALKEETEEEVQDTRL
# experiment_description: Membrane potential optical assay for ΔF508-CFTR correction (single-addition HTS format)
# conditions: NIH 3T3 cells expressing ΔF508-CFTR; 16-24 hrs with test compound; 10 µM forskolin and genistein (20 µM); read-out: Binned EC50
# Source text: Membrane potential optical methods for assaying ΔF508-CFTR modulation properties of compounds. The assay utilizes fluorescent voltage sensing dyes to measure changes in membrane potential using a fluorescent plate reader (e.g., FLIPR III, Molecular Devices, Inc.) as a readout for increase in functional ΔF508-CFTR in NIH 3T3 cells. […]
pEC50: −log10 of the molar value.
Documented pEC50 across a set of molecules

[
  {
    "molecule": "CC(C)(CCO)c1cc2cc(NC(=O)C3(c4ccc5c(c4)OC(F)(F)O5)CC3)c(F)cc2n1C[C@@H](O)CO",
    "tested_system": "ΔF508-CFTR (Homo sapiens, UniProt P13569, DEL508-508)",
    "pEC50": "> 5.70"
  },
  {
    "molecule": "CC(C)(CCOC[C@@H](O)CO)c1cc2cc(NC(=O)C3(c4ccc5c(c4)OC(F)(F)O5)CC3)c(F)cc2[nH]1",
    "tested_system": "ΔF508-CFTR (Homo sapiens, UniProt P13569, DEL508-508)",
    "pEC50": "> 5.70"
  },
  {
    "molecule": "CC(C)(C)c1cc2c(C#N)c(NC(=O)C3(c4ccc5c(c4)OC(F)(F)O5)CC3)ccc2n1CCO",
    "tested_system": "ΔF508-CFTR (Homo sapiens, UniProt P13569, DEL508-508)",
    "pEC50": "> 5.70"
  },
  {
    "molecule": "CC(C)(CCOC[C@@H](O)CO)c1cc2cc(NC(=O)C3(c4ccc5c(c4)OC(F)(F)O5)CC3)c(F)cc2n1C[C@@H](O)CO",
    "tested_system": "ΔF508-CFTR (Homo sapiens, UniProt P13569, DEL508-508)",
    "pEC50": "> 5.70"
  },
  {
    "molecule": "CC(C)(C)c1cc2cc(NC(=O)C3(c4ccc5c(c4)OCO5)CC3)c(F)cc2n1CC(O)CO (centres unmarked)",
    "tested_system": "ΔF508-CFTR (Homo sapiens, UniProt P13569, DEL508-508)",
    "pEC50": "> 5.70"
  }
]
